Assay: Pharmacokinetic study, single intravenous and oral administration in Beagle dogs
Format: in vivo
Conditions: dog, plasma, oral 50 mg/kg
REPORTED_METRIC: bioavailability (%)
Form entry: value (%) — number only.

// "C=CC(=O)Nc1cc(Nc2ncc(C(=O)OC(C)C)c(-c3cn(OC)c4ccccc34)n2)c(OC)cc1N(C)CCN(C)C.CS(=O)(=O)O" : bioavailability value = 36.6

* * *

Assay: Pharmacokinetic study, single intravenous and oral administration in Beagle dogs
Assay type: in vivo
Conditions: dog, plasma, intravenous injection 2 mg/kg
REPORTED_METRIC: half-life

// "C=CC(=O)Nc1cc(Nc2ncc(C(=O)OC(C)C)c(-c3cn(OC)c4ccccc34)n2)c(OC)cc1N(C)CCN(C)C.CS(=O)(=O)O" : half-life value = 8.79 h

* * *

Assay: Pharmacokinetic study, single intravenous and oral administration in rats
Format: in vivo
Conditions: rat, plasma, oral 200 mg/kg
REPORTED_METRIC: bioavailability (%)
Form entry: value (%) — number only.

// "C=CC(=O)Nc1cc(Nc2ncc(C(=O)OC(C)C)c(-c3cn(OC)c4ccccc34)n2)c(OC)cc1N(C)CCN(C)C.CS(=O)(=O)O" : bioavailability value = 34.5

* * *

Assay: Compound stability test in plasma (monkey)
Assay type: in vitro ADME, cynomolgus monkey
Conditions: pH 7.4, 37° C., read-out: In vitro plasma half-life T1/2
REPORTED_METRIC: half-life at 2 µM

// "C=CC(=O)Nc1cc(Nc2ncc(C(=O)OC(C)C)c(-c3cn(OC)c4ccccc34)n2)c(OC)cc1N(C)CCN(C)C.CS(=O)(=O)O" : half-life at 2 µM value = > 4.82 h

* * *

Assay: Pharmacokinetic study, single intravenous and oral administration in rats
Format: in vivo
Conditions: rat, plasma, intravenous injection 2 mg/kg, read-out: Vdss
REPORTED_METRIC: Vd (L/kg)
Form entry: value (L/kg) — number only.

// "C=CC(=O)Nc1cc(Nc2ncc(C(=O)OC(C)C)c(-c3cn(OC)c4ccccc34)n2)c(OC)cc1N(C)CCN(C)C.CS(=O)(=O)O" : Vd value = 18

* * *

Assay: Pharmacokinetic study, single intravenous and oral administration in mice
Type: in vivo
Settings: mouse, plasma, oral 10 mg/kg
REPORTED_METRIC: bioavailability (%)
Form entry: value (%) — number only.

// C=CC(=O)Nc1cc(Nc2ncc(C(=O)OC(C)C)c(-c3cn(OC)c4ccccc34)n2)c(OC)cc1N(C)CCN(C)C.CS(=O)(=O)O [Compound 1] : bioavailability value = 22.1

* * *

Assay: Pharmacokinetic study, single intravenous and oral administration in Beagle dogs
Format: in vivo
Conditions: dog, plasma, oral 10 mg/kg, read-out: Exposure of AUC0-last
REPORTED_METRIC: AUC(0-t)

// C=CC(=O)Nc1cc(Nc2ncc(C(=O)OC(C)C)c(-c3cn(OC)c4ccccc34)n2)c(OC)cc1N(C)CCN(C)C.CS(=O)(=O)O [Compound 1] : AUC(0-t) value = 10.3 µM·h

* * *

Test: Pharmacokinetic study, single intravenous and oral administration in Beagle dogs
Assay type: in vivo
Settings: dog, plasma, intravenous injection 2 mg/kg, read-out: Vdss
REPORTED_METRIC: Vd (L/kg)
Form entry: value (L/kg) — number only.

// "C=CC(=O)Nc1cc(Nc2ncc(C(=O)OC(C)C)c(-c3cn(OC)c4ccccc34)n2)c(OC)cc1N(C)CCN(C)C.CS(=O)(=O)O" : Vd value = 7.98

* * *

Test: Pharmacokinetic study, single intravenous and oral administration in mice
Type: in vivo
Conditions: mouse, plasma, intravenous injection 2 mg/kg, read-out: Exposure of AUC
REPORTED_METRIC: AUC (µM·h)
Form entry: value (µM·h) — number only.

// "C=CC(=O)Nc1cc(Nc2ncc(C(=O)OC(C)C)c(-c3cn(OC)c4ccccc34)n2)c(OC)cc1N(C)CCN(C)C.CS(=O)(=O)O" : AUC value = 0.884

* * *

Experiment: Pharmacokinetic study, single intravenous and oral administration in rats
Type: in vivo
Settings: rat, plasma, oral 200 mg/kg, read-out: Exposure of AUC0-last
REPORTED_METRIC: AUC(0-t) (µM·h)
Form entry: value (µM·h) — number only.

// C=CC(=O)Nc1cc(Nc2ncc(C(=O)OC(C)C)c(-c3cn(OC)c4ccccc34)n2)c(OC)cc1N(C)CCN(C)C.CS(=O)(=O)O [Compound 1] : AUC(0-t) value = 18.9

* * *

Assay: Pharmacokinetic study, single intravenous and oral administration in mice
Type: in vivo
Conditions: mouse, plasma, oral 10 mg/kg
Experimental: The purpose of this experiment was to investigate the pharmacokinetics (PK) of the compounds in different species after single intravenous and single oral administration of the test compounds. After intravenous or oral administration, blood samples were collected from the animals, and the actual time of blood collection was recorded. […]
REPORTED_METRIC: Cmax
Record the result as number plus unit.

// "C=CC(=O)Nc1cc(Nc2ncc(C(=O)OC(C)C)c(-c3cn(OC)c4ccccc34)n2)c(OC)cc1N(C)CCN(C)C.CS(=O)(=O)O" : Cmax value = 300 nM

* * *

Experiment: Pharmacokinetic study, single intravenous and oral administration in rats
Type: in vivo
Conditions: rat, plasma, oral 50 mg/kg, read-out: Exposure of AUC0-last
REPORTED_METRIC: AUC(0-t) (µM·h)
Form entry: value (µM·h) — number only.

// C=CC(=O)Nc1cc(Nc2ncc(C(=O)OC(C)C)c(-c3cn(OC)c4ccccc34)n2)c(OC)cc1N(C)CCN(C)C.CS(=O)(=O)O [Compound 1] : AUC(0-t) value = 9.39

* * *

Assay: Pharmacokinetic study, single intravenous and oral administration in mice
Assay type: in vivo
Conditions: mouse, plasma, intravenous injection 2 mg/kg, read-out: Vdss
REPORTED_METRIC: Vd (L/kg)
Form entry: value (L/kg) — number only.

// "C=CC(=O)Nc1cc(Nc2ncc(C(=O)OC(C)C)c(-c3cn(OC)c4ccccc34)n2)c(OC)cc1N(C)CCN(C)C.CS(=O)(=O)O" : Vd value = 6.95

* * *

Assay: Compound stability test in plasma (dog)
Type: in vitro ADME, Beagle
Conditions: beagle, pH 7.4, 37° C., read-out: In vitro plasma half-life T1/2
REPORTED_METRIC: half-life at 2 µM

// "C=CC(=O)Nc1cc(Nc2ncc(C(=O)OC(C)C)c(-c3cn(OC)c4ccccc34)n2)c(OC)cc1N(C)CCN(C)C.CS(=O)(=O)O" : half-life at 2 µM value = > 289 min

* * *

Experiment: Pharmacokinetic study, single intravenous and oral administration in rats
Format: in vivo
Conditions: rat, plasma, oral 20 mg/kg, read-out: Exposure of AUC0-last
REPORTED_METRIC: AUC(0-t) (µM·h)
Form entry: value (µM·h) — number only.

// C=CC(=O)Nc1cc(Nc2ncc(C(=O)OC(C)C)c(-c3cn(OC)c4ccccc34)n2)c(OC)cc1N(C)CCN(C)C.CS(=O)(=O)O [Compound 1] : AUC(0-t) value = 3.13

* * *

Experiment: Pharmacokinetic study, single intravenous and oral administration in Beagle dogs
Format: in vivo
Details: dog, plasma, oral 10 mg/kg
REPORTED_METRIC: bioavailability (%)
Form entry: value (%) — number only.

// "C=CC(=O)Nc1cc(Nc2ncc(C(=O)OC(C)C)c(-c3cn(OC)c4ccccc34)n2)c(OC)cc1N(C)CCN(C)C.CS(=O)(=O)O" : bioavailability value = 53.5

* * *

Test: Pharmacokinetic study, single intravenous and oral administration in mice
Assay type: in vivo
Conditions: mouse, plasma, intravenous injection 2 mg/kg
REPORTED_METRIC: half-life (h)
Form entry: value (h) — number only.

// C=CC(=O)Nc1cc(Nc2ncc(C(=O)OC(C)C)c(-c3cn(OC)c4ccccc34)n2)c(OC)cc1N(C)CCN(C)C.CS(=O)(=O)O [Compound 1] : half-life value = 1.76

* * *

Assay: Pharmacokinetic study, single intravenous and oral administration in rats
Format: in vivo
Conditions: rat, plasma, intravenous injection 2 mg/kg
REPORTED_METRIC: half-life
Record the result as number plus unit.

// "C=CC(=O)Nc1cc(Nc2ncc(C(=O)OC(C)C)c(-c3cn(OC)c4ccccc34)n2)c(OC)cc1N(C)CCN(C)C.CS(=O)(=O)O" : half-life value = 157 min

* * *

Test: Pharmacokinetic study, single intravenous and oral administration in rats
Type: in vivo
Details: rat, plasma, intravenous injection 2 mg/kg, read-out: Exposure of AUC
REPORTED_METRIC: AUC

// "C=CC(=O)Nc1cc(Nc2ncc(C(=O)OC(C)C)c(-c3cn(OC)c4ccccc34)n2)c(OC)cc1N(C)CCN(C)C.CS(=O)(=O)O" : AUC value = 0.548 µM·h

* * *

Assay: Pharmacokinetic study, single intravenous and oral administration in rats
Assay type: in vivo
Conditions: rat, plasma, oral 10 mg/kg
REPORTED_METRIC: bioavailability (%)
Form entry: value (%) — number only.

// C=CC(=O)Nc1cc(Nc2ncc(C(=O)OC(C)C)c(-c3cn(OC)c4ccccc34)n2)c(OC)cc1N(C)CCN(C)C.CS(=O)(=O)O [Compound 1] : bioavailability value = 21.6

Reference for the values: patent US11530196B2
